Target: human FXa (Homo sapiens, UniProt P00742)
Sequence (P00742 235-488 limits assumed): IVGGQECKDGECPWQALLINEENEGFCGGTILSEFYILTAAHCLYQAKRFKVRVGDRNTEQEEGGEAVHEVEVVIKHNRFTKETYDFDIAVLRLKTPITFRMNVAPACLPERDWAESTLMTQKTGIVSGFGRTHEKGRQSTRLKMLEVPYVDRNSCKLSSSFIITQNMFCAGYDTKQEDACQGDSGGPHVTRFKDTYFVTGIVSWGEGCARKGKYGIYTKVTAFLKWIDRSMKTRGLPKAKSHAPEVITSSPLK
Sequence (P00742 41-179 partner limits assumed): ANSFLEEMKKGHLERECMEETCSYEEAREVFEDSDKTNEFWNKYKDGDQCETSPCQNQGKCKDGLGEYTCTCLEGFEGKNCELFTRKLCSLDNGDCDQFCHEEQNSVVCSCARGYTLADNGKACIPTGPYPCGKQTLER
reportedMetric: Ki (nM)
Answer in nM, number only, no unit symbol.

[in] What does the record list as Ki for C[N+]1([O-])CCc2nc(C(=O)N3CCN(S(=O)(=O)c4ccc5cc(Cl)ccc5c4)CC3)sc2C1 (stereo not shown) ?
[out] 10.9

====

Biological target: human thrombin (Homo sapiens)
reportedMetric: Ki (µM)
Answer in µM, number only, no unit symbol.

[in] What does the record list as Ki for C[N+]1([O-])CCc2nc(C(=O)N3CCN(S(=O)(=O)c4ccc5cc(Cl)ccc5c4)CC3)sc2C1 (stereo not shown) [Example 93] ?
[out] 3.3
